assay: Antiproliferative activity against human NCI-H322T cells assessed as inhibition of cell growth incubated for 48 hrs by MTT assay; type: functional, cell-based
Parameter: IC50 (µM)
Give just the number in µM; leave the unit off.

Problem: So what's the measured IC50 for this one? N#Cc1ccccc1-n1cc(COc2cccc3c2C(=O)C=CC3=O)nn1
Solution: 7.94

###

test system: HepG2; experiment: Antiproliferative activity against human HepG2 cells assessed as inhibition of cell growth incubated for 24 hrs by MTT reagent based microplate reader assay; type: functional; details: HepG2, 24 h
Parameter: pIC50
Please note pIC50 is a logarithmic value: minus log10 of concentration in mol/L. Answer with that number alone.

Problem: Notebook: pull reported pIC50 for HepG2, entry COc1ccc(OC)c2c1C(=O)C=C(Sc1ccc3ccccc3c1)C2=O
Solution: 6.06
